Tested on: IGROV1 ovarian
TEST_PROTOCOL: NCI-60 one-dose screen, 48 h
EXPERIMENTAL_PARAMETERS: 10 µM
This is part of a sample that, as a whole, favours compounds with a hit. Of some 83,000 tested, about 20% had one in any assay. The source made the active and inactive calls. The calls were made as follows: active = growth percent below 10; inactive = the rest.
Your answer must be one of the following: active, inactive

molecule=Oc1ccc(/C=N/N=C2c3ccccc3-c3ccccc32)c(O)c1 target_system="IGROV1 ovarian" group_label=inactive
molecule="Nc1ncnc2c1ncn2C1(CO)OCC(O)C(O)C1O (stereo unspecified)" target_system="IGROV1 ovarian" group_label=inactive
molecule=CC(=O)Oc1cc(OC(C)=O)c2ccccc2c1OC(C)=O target_system="IGROV1 ovarian" group_label=inactive

We next turn to a different molecule, shown below.
Input line: Check the results log: what was the call for "COc1ccc(/C=C2/SC(=S)NC2=O)c(OC)c1OC" ?
Output line: inactive

----------
Test system: KM12 colon
TEST_PROTOCOL: NCI-60 one-dose screen, 48 h (100 = growth as untreated, 0 = no growth, -100 = all killed)
EXPERIMENTAL_PARAMETERS: 10 µM
The panel holds about 83,000 compounds, 20% with a hit somewhere; the sample as a whole holds those more often.
TEST_READOUT: growth (%)
# value in %; strip the unit string

Here are 4 compounds together with their reported answers.
compound=O=[N+]([O-])c1ccc2ncccc2c1Cl target_system="KM12 colon" measured_result=-7.28
compound=O=C(CCCCC(=O)Oc1c(Cl)cc(Cl)cc1[N+](=O)[O-])Oc1c(Cl)cc(Cl)cc1[N+](=O)[O-] target_system="KM12 colon" measured_result=99.7
compound="CC[C@@H](C(=O)[C@H](C)[C@H](O)[C@@H](C)[C@H]1O[C@H]([C@@H](CC)C(=O)O)CC[C@H]1C)C1O[C@]2(C=C[C@@H](O)[C@]3(CC[C@@](C)([C@H]4CC[C@](O)(CC)[C@H](C)O4)O3)O2)[C@H](C)C[C@@H]1C (some centres undefined)" target_system="KM12 colon" measured_result=24.5
compound="NC(N)=N/N=C(\\c1ccccc1)C(O)c1ccccc1 (centres undefined)" target_system="KM12 colon" measured_result=105

Input line: Report growth for "COc1ccc2nc(Cl)c(Cn3nnc(Cc4ccccc4)n3)cc2c1" please.
Output line: 36.5

Input line: Report growth for "Cc1ccc2nc(Cl)c(-c3nc4ccccc4o3)cc2c1" please.
Output line: 89.5

Input line: Report growth for "Cc1c(Cl)cccc1NC(=O)CN1CCOCC1" please.
Output line: 97.3

Input line: Report growth for "CNC(=O)c1cc(Oc2ccc3c(c2)sc2nc(-c4ccc(N)cc4)cn23)ccn1" please.
Output line: 20.7

Input line: Report growth for "CN(C)CCCOc1cccc(NC2=C(Cl)C(=O)C(Nc3cccc(OCCCN(C)C)c3)=C(Cl)C2=O)c1" please.
Output line: 13.9

----------
System: MOLT-4 leukemia
TEST_PROTOCOL: NCI-60 one-dose screen, 48 h
EXPERIMENTAL_PARAMETERS: 10 µM
The panel holds about 83,000 compounds, 20% with a hit somewhere; the sample as a whole holds those more often. Active and inactive are the calls of the source. Rule for the calls: active = growth percent below 10; inactive = the rest.
Your answer must be one of the following: yes (1) for active, no (0) for inactive

Before answering, review these 5 worked examples.
compound=c1ccc(CCCCc2ccc3ccccc3n2)cc1 group_label="no (0)"
compound=COc1cc(NC(=O)C2=C(N3CCOCC3)/C(=C/c3ccc(Cl)cc3)CC2)cc(OC)c1OC group_label="no (0)"
compound=CC(C)(C)c1ccc(S(=O)(=O)Oc2ccc(NC(=O)C3CCCCC3)cc2)cc1 group_label="no (0)"
compound=CCOC(=O)Cn1c(=O)c2sc3ncccc3c2n2nnc(-c3ccccc3)c12 group_label="no (0)"
compound="COc1ccc(C(=O)N2C=Cc3ccccc3C2C#N)cc1 (stereo unspecified)" group_label="no (0)"

Input line: Check the results log: what was the call for "COc1cc(C)ccc1Oc1nc(Nc2ccc(N3CCOCC3)cc2)ncc1NC(=O)Nc1cc(C(F)(F)F)cc(C(F)(F)F)c1" ?
Output line: no (0)

Input line: Check the results log: what was the call for "Cc1cc(SCc2ccccc2)nc(N)n1" ?
Output line: no (0)

Input line: Check the results log: what was the call for "CC(C)(C)OC(=O)CN1CCc2c(sc3ncnc(N/N=C/c4ccccc4Br)c23)C1" ?
Output line: no (0)

Input line: Check the results log: what was the call for "O=C1CSC(=S)N1/N=C/c1ccc(Cl)s1" ?
Output line: no (0)

Input line: Check the results log: what was the call for "Cc1cc(SC#N)cc(C(C)(C)C)c1O" ?
Output line: no (0)

Input line: Check the results log: what was the call for "O=C(CCl)Nc1ccc(Cc2ccc(NC(=O)CCl)cc2)cc1" ?
Output line: yes (1)

Input line: Check the results log: what was the call for "COc1ccc(/C=C/C(=O)C(=O)/C=C/c2ccc(OC)c(OC)c2)cc1OC" ?
Output line: no (0)

Input line: Check the results log: what was the call for "COc1cc(-c2nn(-c3cccc(NC(=O)CCN4CCN(c5ccccc5)CC4)c3)cc2-c2ccncc2)ccc1Cl" ?
Output line: no (0)

----------
System: UO-31 renal
TEST_PROTOCOL: NCI-60 one-dose screen, 48 h (100 = growth as untreated, 0 = no growth, -100 = all killed)
EXPERIMENTAL_PARAMETERS: 10 µM
Compounds without any hit were thinned out: in the full panel of roughly 83,000, 20% have a hit. Active and inactive are the calls of the source. How the source made its calls: active means growth percent below 10; inactive means the rest.
TEST_READOUT: growth

Here are 8 compounds together with their reported answers.
compound=COc1cc(-c2nn(-c3cccc(NC(=O)NCCNS(=O)(=O)c4ccc(Cl)cc4)c3)cc2-c2ccncc2)ccc1Cl test_readout=growth measured_result="21.1% (inactive)"
compound=COc1cc2c3c(n([C@H]4CCOC4)c(=O)c2cc1OC)-c1cc2c(cc1C3=O)OCO2 test_readout=growth measured_result="10.6% (inactive)"
compound="CCOC(=O)C1C(C(=O)OCC)C2C(=O)C3C(C(=O)OCC)C(C(=O)OCC)C3C(=O)C12 (centres undefined)" test_readout=growth measured_result="94.8% (inactive)"
compound=NC1=CC(=O)C(=O)c2cccnc21 test_readout=growth measured_result="47.8% (inactive)"
compound=COc1cc(NC(=O)C2=C(N3CCOCC3)/C(=C/c3ccc(Cl)cc3)CC2)cc(OC)c1OC test_readout=growth measured_result="72.8% (inactive)"
compound=CCNc1nc(C(F)(F)F)nc2c1sc(=S)n2-c1ccccc1 test_readout=growth measured_result="104% (inactive)"
compound="COc1ccc(/C(=N\\N)C(=O)c2ccccc2)cc1 (tested in a mixture with another compound)" test_readout=growth measured_result="81.1% (inactive)"
compound=CCCc1nc(C(C)(C)O)c(C(=O)O)n1Cc1ccc(-c2ccccc2-c2nn[nH]n2)cc1 test_readout=growth measured_result="84.6% (inactive)"

Input line: Report growth for "O=C(Nc1ccc2c(O)cc(S(=O)(=O)O)cc2c1)c1ccc([N+](=O)[O-])cc1" please.
Output line: 91.4% (inactive)

----------
System: HCT-15 colon
TEST_PROTOCOL: NCI-60 one-dose screen, 48 h (100 = growth as untreated, 0 = no growth, -100 = all killed)
EXPERIMENTAL_PARAMETERS: 10 µM
The panel holds about 83,000 compounds, 20% with a hit somewhere; the sample as a whole holds those more often.
I'd appreciate it if you marked entries MET when growth is lower than 30% and NOT MET when it is not.

molecule=CCOC(=O)c1cocc1C(=O)O target_system="HCT-15 colon" group_label="NOT MET"
molecule=Nc1ccc(CC[C@H]2CCC/C=C/[C@@H]3C[C@H](O)C[C@H]3[C@H](O)/C=C/C(=O)O2)cc1 target_system="HCT-15 colon" group_label=MET
molecule="CCN(CC)CCCC(C)Nc1c2ccc(Cl)cc2nc2ccc(OC)cc12 (stereo not drawn)" target_system="HCT-15 colon" group_label=MET
molecule=O=C1c2ccccc2-c2c1c1cccnc1c(=O)n2C[C@H](O)CO target_system="HCT-15 colon" group_label="NOT MET"

Input line: # strict comparison: is reported growth < 30%? input = "CC(=O)N[C@H](C(=O)N[C@@H](CCCNC(=N)N)C(=O)N[C@@H](CCCCN)C(=O)N[C@@H](CCCNC(=N)N)C(=O)N[C@]1(C)CCCCCC/C=C\CCC[C@@](C)(C(=O)N[C@@H](CCCNC(=N)N)C(=O)N[C@@H](CCC(=O)O)C(=O)N[C@@H](CC(C)C)C(=O)N[C@H](C(=O)N[C@@H](CCC(=O)O)C(N)=O)C(C)C)NC(=O)[C@H](CCC(N)=O)NC(=O)[C@H](CC(C)C)NC(=O)[C@H](CC(C)C)NC(=O)[C@H](CCCNC(=N)N)NC(=O)[C@H](CCCNC(=N)N)NC(=O)[C@H](CC(C)C)NC1=O)C(C)C"
Output line: MET

Input line: # strict comparison: is reported growth < 30%? input = COc1cc2ncnc(NC3CCC(O)CC3)c2cc1OC (stereo not drawn)
Output line: NOT MET

Input line: # strict comparison: is reported growth < 30%? input = "Cc1ccc(Cl)cc1NC(=O)CCl"
Output line: NOT MET

Input line: # strict comparison: is reported growth < 30%? input = "C=CCNCCN1C(=O)c2ccc3c4c(ccc(c24)C1=O)C(=O)N(CCNCC=C)C3=O"
Output line: MET

Input line: # strict comparison: is reported growth < 30%? input = CCCN1CN2C(=O)N3CN(CCC)CN4C(=S)N(C1)C2C34 (stereo not drawn)
Output line: NOT MET

Input line: # strict comparison: is reported growth < 30%? input = "Cc1c2cnccc2c(C)c2c1oc1ccccc12"
Output line: NOT MET

Input line: # strict comparison: is reported growth < 30%? input = "CN(C)CCOc1cccc(-c2nc3sccn3c2-c2ccnc(S(C)(=O)=O)n2)c1"
Output line: NOT MET

Input line: # strict comparison: is reported growth < 30%? input = "Cc1cc(CSc2ccccc2C(=O)N2CC=C(c3ccccc3)CC2)on1"
Output line: NOT MET

Input line: # strict comparison: is reported growth < 30%? input = "CC1(C)N=C(N)N=C(N)N1c1cccc(C#N)c1"
Output line: NOT MET

Input line: # strict comparison: is reported growth < 30%? input = CC(=O)C1N=NCC1c1ccccc1 (stereo not drawn)
Output line: NOT MET

Input line: # strict comparison: is reported growth < 30%? input = "O=C(Cn1cc(CO)nn1)Nc1nc2ccccc2s1"
Output line: NOT MET

Input line: # strict comparison: is reported growth < 30%? input = "COc1ccc(-c2nn(-c3cccc(Cl)c3)cc2-c2c(C#N)c(N)n(N)c(=O)c2C#N)cc1"
Output line: NOT MET

Input line: # strict comparison: is reported growth < 30%? input = "COc1cc(/C=C/c2cc(/C=C/c3ccc(O)c(OC)c3)n(C(=O)Nc3ccccc3Cl)n2)ccc1O"
Output line: MET

Input line: # strict comparison: is reported growth < 30%? input = "CCOC(=O)c1cc(C(=O)c2cc(OC)c(OC)c(OC)c2)n2c1ccc1c3cccnc3ccc12"
Output line: NOT MET

Hey, just so you know, these numbers are from PubChem BioAssay (NCI).
